target: rhesus (Macacca Mulatta) H3 receptor (Macaca mulatta, UniProt Q865E1); construct: 445 amino acid H3 receptor; experiment: Rhesus H3 [3H]-Methylhistamine radioligand binding assay (SPA); details: [3H]-Methylhistamine 2 nM, rhesus H3 membranes, Cheng-Prusoff
Sequence (Q865E1 1-445): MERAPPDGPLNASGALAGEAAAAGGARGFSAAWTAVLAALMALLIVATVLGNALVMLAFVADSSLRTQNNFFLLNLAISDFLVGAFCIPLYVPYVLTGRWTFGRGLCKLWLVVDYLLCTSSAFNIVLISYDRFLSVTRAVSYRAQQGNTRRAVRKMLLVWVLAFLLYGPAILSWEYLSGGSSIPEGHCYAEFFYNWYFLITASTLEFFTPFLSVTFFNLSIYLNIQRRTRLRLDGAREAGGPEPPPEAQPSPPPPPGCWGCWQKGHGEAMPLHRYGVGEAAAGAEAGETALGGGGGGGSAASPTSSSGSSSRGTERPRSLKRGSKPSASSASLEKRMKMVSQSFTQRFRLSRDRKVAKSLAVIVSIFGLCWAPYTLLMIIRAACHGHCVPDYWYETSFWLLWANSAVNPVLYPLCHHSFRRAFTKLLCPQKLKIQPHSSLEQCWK
recorded-endpoint: pKi
pKi (log units): -log10 of the concentration in mol/L.

Some compounds with recorded pKi:
- compound: "CCOC(=O)C1CCC(N2CCc3cc(N4CC[C@H](N5CCC[C@@H]5C)C4)ccc3C2)CC1 (some centres unmarked)"
  study-target: "rhesus (Macacca Mulatta) H3 receptor (Macaca mulatta, UniProt Q865E1)"
  reading: 9.24
- compound: "C[C@H]1CCCN1[C@H]1CCN(c2ccc3c(c2)CCN(C(=O)C2CCOCC2)C3)C1"
  study-target: "rhesus (Macacca Mulatta) H3 receptor (Macaca mulatta, UniProt Q865E1)"
  reading: 9.92

Enquiry: Which pKi is listed for C[C@H]1CCCN1[C@H]1CCN(c2ccc3c(c2)CCN(C(=O)c2cccnc2)C3)C1 ?
Return: 9.55

Enquiry: // pKi lookup, key: COc1ccc(C(=O)N2CCc3cc(N4CC[C@H](N5CCC[C@@H]5C)C4)ccc3C2)cc1
Return: 8.55

Enquiry: Suppose we examine the compound C[C@H]1CCCN1[C@H]1CCN(c2ccc3c(c2)CCN(C(=O)C(c2ccccc2)c2ccccc2)C3)C1 ; what pKi value has been reported?
Return: 8.43

Enquiry: Need pKi, item C[C@H]1CCCN1[C@H]1CCN(c2ccc3c(c2)CCN(C(=O)c2ccoc2)C3)C1
Return: 9.66

Enquiry: Give the measured pKi of CCOC(=O)N1CCc2cc(N3CC[C@H](N4CCC[C@@H]4C)C3)ccc2C1 .
Return: 8.92

Enquiry: Reported pKi for C[C@H]1CCCN1[C@H]1CCN(c2ccc3c(c2)CCN(C2CCC(NC(=O)OC(C)(C)C)CC2)C3)C1 (some centres unmarked) : what is it?
Return: 9.46

Enquiry: If you can, please state the reported pKi value of C[C@H]1CCCN1[C@H]1CCN(c2ccc3c(c2)CCN(Cc2ccc4c(c2)OCCO4)C3)C1 .
Return: 9.34

Enquiry: // lookup pKi for C[C@H]1CCCN1[C@H]1CCN(c2ccc3c(c2)CCN(C2CCOCC2)C3)C1.O=C(O)C(F)(F)F [Example 4, hydrochloride]
Return: 9.96

Enquiry: Bench note: what pKi did C[C@H]1CCCN1[C@H]1CCN(c2ccc3c(c2)CCN(C(=O)Nc2ccc(-c4ccccc4)cc2)C3)C1 show?
Return: 7.13

Enquiry: // query pKi value for entry C[C@H]1CCCN1[C@H]1CCN(c2ccc3c(c2)CN(C(=O)C2CCOCC2)CC3)C1
Return: 9.18

Enquiry: Name the reported pKi value associated with the compound C[C@H]1CCCN1[C@H]1CCN(c2ccc3c(c2)CCN(C(=O)c2ccccc2)C3)C1
Return: 9.54

Enquiry: Entry under review: C[C@H]1CCCN1[C@H]1CCN(c2ccc3c(c2)CCN(C2CCN(C(=O)OC(C)(C)C)C2)C3)C1 (some centres unmarked) . Reported pKi?
Return: 9.05

Enquiry: Form field: reported pKi of C[C@H]1CCCN1[C@H]1CCN(c2ccc3c(c2)CCN(Cc2ccc(F)cc2)C3)C1
Return: 9.43

Enquiry: Entry Cc1ccc(S(=O)(=O)N2CCc3cc(N4CC[C@H](N5CCC[C@@H]5C)C4)ccc3C2)cc1 has what pKi?
Return: 7.06

Enquiry: State the recorded pKi for this entry: CC(C)N1CCc2cc(N3CC[C@H](N4CCC[C@@H]4C)C3)ccc2C1
Return: 9.12

Enquiry: pKi lookup needed for CCOC(=O)N1CCC(N2CCc3cc(N4CC[C@H](N5CCC[C@@H]5C)C4)ccc3C2)CC1 , thanks.
Return: 9.42

Enquiry: What does the data say about its pKi? Entry: COc1cccc(NC(=O)N2CCc3cc(N4CC[C@H](N5CCC[C@@H]5C)C4)ccc3C2)c1
Return: 7.96

Enquiry: Given the entry C[C@H]1CCCN1[C@H]1CCN(c2ccc3c(c2)CCN(C(=O)c2ccc(F)cc2)C3)C1 , report its measured pKi.
Return: 9.72

Cited source: patent US8871788B2
